- TESTED_ON: TRAILR2 receptor on the surface of human tumor cells (human, UniProt O14763 56-440)
- METHOD_DESCRIPTION: cell-based or functional assay
Give eff. (efficiency %), cytotoxic effect on SMMC-7721 cells for every item shown.
Give your result in % as a bare value.

Inquiry: Report eff. (efficiency %), cytotoxic effect on SMMC-7721 cells for Zaptuzumab (antibody, V domains shown) VH: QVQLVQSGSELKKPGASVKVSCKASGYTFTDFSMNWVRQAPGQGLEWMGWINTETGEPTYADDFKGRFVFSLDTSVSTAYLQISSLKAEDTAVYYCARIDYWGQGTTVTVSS VL: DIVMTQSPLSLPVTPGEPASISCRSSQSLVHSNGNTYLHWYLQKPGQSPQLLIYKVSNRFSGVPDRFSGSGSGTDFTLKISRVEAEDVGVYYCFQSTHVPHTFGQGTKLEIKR please.
Reply text: 48

Inquiry: Report eff. (efficiency %), cytotoxic effect on SMMC-7721 cells for Zapadcine-1c (antibody, V domains shown, MMAD coupled through linker Py-MAA by thiol bridge coupling, non-cleavable; positions not given) VH: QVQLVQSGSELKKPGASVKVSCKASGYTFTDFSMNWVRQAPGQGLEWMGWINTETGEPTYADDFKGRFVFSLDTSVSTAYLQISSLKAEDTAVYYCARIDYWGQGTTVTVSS VL: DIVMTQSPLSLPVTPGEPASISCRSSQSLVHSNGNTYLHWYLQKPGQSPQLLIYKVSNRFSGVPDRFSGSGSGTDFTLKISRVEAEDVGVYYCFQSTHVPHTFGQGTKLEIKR please.
Reply text: 96.5

Inquiry: Report eff. (efficiency %), cytotoxic effect on SMMC-7721 cells for Zapadcine-1a (antibody, V domains shown, MMAD coupled through linker Py-Vc-PAB by thiol (disulfide) bridge coupling, cleavable; positions not given) VH: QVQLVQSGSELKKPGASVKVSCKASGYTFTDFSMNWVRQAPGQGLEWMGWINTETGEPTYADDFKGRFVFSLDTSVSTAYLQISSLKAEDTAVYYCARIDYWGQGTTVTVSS VL: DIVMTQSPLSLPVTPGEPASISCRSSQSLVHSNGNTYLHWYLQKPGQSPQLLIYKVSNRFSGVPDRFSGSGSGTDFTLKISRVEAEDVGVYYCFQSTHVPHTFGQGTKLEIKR please.
Reply text: 99.4

Inquiry: Report eff. (efficiency %), cytotoxic effect on SMMC-7721 cells for Zapadcine-1d (antibody, V domains shown, MMAF coupled through linker Mc-Vc-PAB by thiol conventional coupling, cleavable; positions not given) VH: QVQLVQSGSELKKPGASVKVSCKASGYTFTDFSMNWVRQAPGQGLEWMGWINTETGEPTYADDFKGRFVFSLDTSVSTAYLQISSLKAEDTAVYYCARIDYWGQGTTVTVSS VL: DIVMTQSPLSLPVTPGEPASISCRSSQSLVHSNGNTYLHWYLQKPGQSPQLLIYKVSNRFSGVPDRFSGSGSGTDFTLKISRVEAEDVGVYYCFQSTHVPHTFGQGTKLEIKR please.
Reply text: 93.7

Inquiry: Report eff. (efficiency %), cytotoxic effect on SMMC-7721 cells for Zapadcine-1b (antibody, V domains shown, MMAD coupled through linker Mc-Vc-PAB by thiol conventional coupling, cleavable; positions not given) VH: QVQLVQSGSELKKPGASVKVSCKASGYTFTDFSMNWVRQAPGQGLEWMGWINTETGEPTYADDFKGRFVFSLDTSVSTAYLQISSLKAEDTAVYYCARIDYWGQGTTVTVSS VL: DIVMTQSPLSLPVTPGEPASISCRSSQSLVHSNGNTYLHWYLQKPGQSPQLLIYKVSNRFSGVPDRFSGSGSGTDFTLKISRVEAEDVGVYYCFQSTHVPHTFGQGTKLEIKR please.
Reply text: 95.7
